Tested on: P. falciparum parasites
assayComment: P. falciparum growth assay, parasitaemia at 72 hr by flow cytometry
assaySetup: read-out: EC50, inhibition of growth of P. falciparum CS2; CS2, 72 hr
Structures can show the parent of a compound that is named as a salt.
measurementType: pEC50
Bear in mind: pEC50 is minus log10 of a mol/L concentration; give just that figure.

q: Query pEC50 on P. falciparum parasites for CC(C)C[C@H](NC(=O)[C@@H](NC(=O)[C@H](CCON=C(N)N)NC(=O)OCc1ccccc1)C(C)C)[C@@H](O)CC(=O)NCCc1ccccc1 [WEHI-842, Cbz-Cav(NH2)—Val-Sta-NH(CH2)2Ph.TFA]
a: 6.08

====

assayedSystem: recombinant P. falciparum plasmepsin V (Plasmodium falciparum)
Construct: FLAG tag + SUMO domain + TEV protease cleavage site (secreted via signal peptide) (N, cleaved yes)
Sequence (Q8I6Z5 80-528): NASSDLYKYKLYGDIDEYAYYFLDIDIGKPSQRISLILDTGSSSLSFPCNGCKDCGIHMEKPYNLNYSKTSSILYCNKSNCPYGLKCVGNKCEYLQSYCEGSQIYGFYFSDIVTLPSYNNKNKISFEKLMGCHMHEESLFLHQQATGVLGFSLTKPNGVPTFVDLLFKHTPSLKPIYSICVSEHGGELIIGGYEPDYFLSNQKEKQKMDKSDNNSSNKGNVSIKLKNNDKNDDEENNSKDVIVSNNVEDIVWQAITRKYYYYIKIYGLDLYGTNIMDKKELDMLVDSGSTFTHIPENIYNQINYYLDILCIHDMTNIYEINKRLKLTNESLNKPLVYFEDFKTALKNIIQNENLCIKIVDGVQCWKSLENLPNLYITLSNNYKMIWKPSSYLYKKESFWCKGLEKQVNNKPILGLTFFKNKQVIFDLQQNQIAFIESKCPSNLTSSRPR
assayComment: Fluorogenic PEXEL cleavage assay (KAHRP FRET peptide), inhibition of recombinant P. falciparum plasmepsin V
assaySetup: KAHRP fluorogenic substrate 7.5 μM, 60 min, 37° C., pH 6.4; read-out: IC50 against recombinant P. falciparum plasmepsin V
measurementType: IC50 (nM)
Report the value in nM with no unit label.

q: Name the reported IC50 value associated with the compound CC(C)C[C@H](NC(=O)[C@@H](NC(=O)[C@H](CCCNC(=N)N)NS(=O)(=O)Cc1ccccc1)C(C)C)[C@@H](O)CC(=O)NCCc1ccccc1 [WEHI-916, reference compound]
a: 12.9

Data provenance is patent US20190065668A1.
